Where do the numbers come from? From patent US20120231006A1.

Listed here are binders together with their documented IC50 IL-2, whole blood Donor A.
assayed.target: human Orai1 (human, UniProt Q96D31 1-301)
Sequence (Q96D31 whole entry): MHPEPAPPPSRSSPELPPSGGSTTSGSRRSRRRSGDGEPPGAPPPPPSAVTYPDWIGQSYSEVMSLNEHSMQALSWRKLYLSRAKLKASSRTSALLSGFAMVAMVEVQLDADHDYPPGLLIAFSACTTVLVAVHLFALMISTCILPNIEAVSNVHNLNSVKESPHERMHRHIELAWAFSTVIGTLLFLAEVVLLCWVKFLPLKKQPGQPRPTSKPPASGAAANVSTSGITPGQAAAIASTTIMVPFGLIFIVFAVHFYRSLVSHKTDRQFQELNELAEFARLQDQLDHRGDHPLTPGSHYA
assay.remarks: cell-based or functional assay
API: value field is a number in nM; no unit string.

binder: mAb 5C1.1 (antibody, human IgG2, lambda, V domains shown, fully human IgG2 lambda, Campaign 2) VH: QVQLVQSGAEVKKPGASVKVSCKASGYTFTDYYMNWVRQAPGQGLEWMGWINPNSGGTKYAQKFQGRVTMTRDTSIRTAYMELSRLRSDDTAVYYCAREYGGNSDWFDPWGQGTLVTVSS VL: QSVLTQPPSVSGAPGQRVTISCTGSSSNIGAGYDVHWYQQLPGTAPKLLIYGNSNRPSGVPDRFSGSKSGTSASLAITGLQAEDEADYYCQSYDNRLSDSVVIGGGTKLAVQG
IC50 IL-2, whole blood Donor A [nM]: 2.18

Consider now this further binder.
Req: Query (binder): mAb 5B5.2 (antibody, human IgG2, lambda, V domains shown, fully human IgG2 lambda, Campaign 2; same chains as 5B5.1) VH: QVQLVQSGAEVKKPGASVKVSCKASGYTFTDYYINWVRQAPGQGLEWMGWINPNSGGTDYAQKFQGRVTMTRDTSIRTAYMELNRLTSDDTAVYYCAREYGGYEDWFDPWGQGTLVTVSS VL: QSVLTQPPSVSGAPGQRVTISCTGSNSNIGAGFDVHWYQQLPGTVPKLLIYGNNNRPSGVPDRFSGSKSGTSASLAITGLQAEDEADYYCQSYDSRLTVFGGGTKLTVLG ; field requested: IC50 IL-2, whole blood Donor A
Resp: 1.39
